Numbers sourced from patent US20250333501A1.

Molecular target: T1, human CLDN6 fused to GFP, expressed on engineered HEK293T cells (HEK293T-CLDN6-mGFP) (human, UniProt P56747 1-220)
T1 construct: It calls residues 1-21 a signal peptide; also called Claudin-6; HEK293T-CLDN6-mGFP Artificial CLDN6+; not shown: mGFP tag
T1 sequence: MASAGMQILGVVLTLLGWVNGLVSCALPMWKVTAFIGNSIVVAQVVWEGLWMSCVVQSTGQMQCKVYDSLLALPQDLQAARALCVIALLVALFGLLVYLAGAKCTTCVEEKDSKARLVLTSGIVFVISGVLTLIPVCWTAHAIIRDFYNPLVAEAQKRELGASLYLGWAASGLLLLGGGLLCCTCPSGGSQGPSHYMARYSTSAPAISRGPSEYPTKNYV
Assay: FACS, 0.3 µg Ab, 293T clone with human CLDN6
Threshold-based label: FACS fluorescence under 40000 gives MET, FACS fluorescence not under 40000 gives NOT MET.

Worked cases, answers included:
binder: AB4-11 (antibody, V domains shown, Humanized; also called Humanized AB 4-11) VH: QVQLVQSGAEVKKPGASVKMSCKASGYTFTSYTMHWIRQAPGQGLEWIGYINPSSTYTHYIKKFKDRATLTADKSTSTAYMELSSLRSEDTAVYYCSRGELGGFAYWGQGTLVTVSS VL: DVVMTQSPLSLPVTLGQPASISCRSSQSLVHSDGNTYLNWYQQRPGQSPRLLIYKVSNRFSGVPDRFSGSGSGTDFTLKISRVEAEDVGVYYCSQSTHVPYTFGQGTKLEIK
answer label: MET
--
binder: AB11-2 (antibody, V domains shown, also called Humanized AB 11-2) VH: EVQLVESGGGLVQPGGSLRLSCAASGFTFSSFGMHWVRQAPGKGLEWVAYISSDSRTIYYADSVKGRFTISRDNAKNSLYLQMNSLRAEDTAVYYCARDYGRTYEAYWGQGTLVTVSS VL: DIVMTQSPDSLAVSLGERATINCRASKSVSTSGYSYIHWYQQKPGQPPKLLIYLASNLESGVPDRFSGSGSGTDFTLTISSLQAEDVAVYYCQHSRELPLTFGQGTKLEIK
answer label: MET
--
binder: AB9-3 (antibody, V domains shown, also called Humanized AB 9-3) VH: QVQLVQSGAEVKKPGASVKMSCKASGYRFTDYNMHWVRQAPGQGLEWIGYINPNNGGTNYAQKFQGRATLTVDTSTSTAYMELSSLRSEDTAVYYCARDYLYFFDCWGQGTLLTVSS VL: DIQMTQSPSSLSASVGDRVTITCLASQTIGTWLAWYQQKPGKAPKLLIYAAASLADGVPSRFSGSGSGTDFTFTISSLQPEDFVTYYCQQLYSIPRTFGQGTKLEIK
answer label: MET
--
binder: AB4-3 (antibody, V domains shown, also called Humanized AB 4-3) VH: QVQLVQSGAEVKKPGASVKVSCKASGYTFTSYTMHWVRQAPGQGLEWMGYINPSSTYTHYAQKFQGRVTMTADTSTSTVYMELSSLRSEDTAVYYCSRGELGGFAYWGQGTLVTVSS VL: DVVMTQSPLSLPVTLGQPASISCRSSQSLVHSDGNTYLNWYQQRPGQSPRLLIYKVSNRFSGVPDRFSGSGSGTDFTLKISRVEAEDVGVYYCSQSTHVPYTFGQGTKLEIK
answer label: MET

Turning to the following binder.
[in] Lab log: compare recorded FACS fluorescence with 40000; is it strictly lower for AB1-8 (antibody, V domains shown, Humanized; also called Humanized AB 1-8) VH: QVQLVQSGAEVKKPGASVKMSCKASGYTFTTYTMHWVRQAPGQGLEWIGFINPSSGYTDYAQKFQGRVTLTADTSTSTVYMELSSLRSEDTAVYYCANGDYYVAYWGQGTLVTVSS VL: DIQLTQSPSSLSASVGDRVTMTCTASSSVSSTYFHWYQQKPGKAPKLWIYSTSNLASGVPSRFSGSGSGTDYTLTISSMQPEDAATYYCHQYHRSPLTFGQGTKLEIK ?
[out] NOT MET
